Data credit: PubChem BioAssay (NCI)

# METHOD NOTES: NCI Yeast Anticancer Drug Screen. Data for the sgs1 mgt1 strain (AID 161);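 also: 0% = growth of cultures given vehicle only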
# EXPERIMENTAL CONDITIONS: S. cerevisiae sgs1 mgt1 strain; at 50.0 µM unless noted
The panel holds about 79,000 compounds, 15% with a hit somewhere; the sample as a whole holds those more often. Activity calls are given as the source filed them. Rule as the data show it: active = growth inhibition above about 70%; inactive = the rest.
Labels: yes (1) for active, no (0) for inactive

COMPOUND	ANSWER LABEL
OC(CN1CCCCC1)c1cc(-c2ccccc2)no1 (stereo unspecified)	no (0)
CS(=O)(=O)OCCN(CCOS(C)(=O)=O)c1ccc(C=Nc2ccc(C(=O)O)c(O)c2)cc1	yes (1)
N=C(N)SCCc1cn2ccccc2n1	no (0)
COc1ccc(/C=C/C(=O)c2sc(Nc3ccc([N+](=O)[O-])cc3)nc2C)cc1	no (0)
CC(=O)Nc1cc(NC(C)=O)c2ccc(=O)[nH]c2c1O	no (0)
CCC(C)(C)c1ccc(C(=O)OC)o1	no (0)
CC(=O)N(C)c1ccc(NC(=O)C2CCCCC2C(=O)O)cc1 (stereo unspecified)	no (0)
CC1=C(C(=O)Nc2cc(=O)n(C)c(=O)n2C)C(c2ccco2)C(C(=O)Nc2cc(=O)n(C)c(=O)n2C)=C(C)N1	no (0)
COC(=O)C(CCSc1ccccc1)C(=O)OC	no (0)
Cc1cc(Cl)c(OCC(=O)O)cc1C	no (0)
C[Si](C)(CCl)N([Si](C)(C)CCl)[Si](C)(C)CCl	no (0)

* * *

# METHOD NOTES: NCI Yeast Anticancer Drug Screen. Data for the bub3 strain (AID 167)
# EXPERIMENTAL CONDITIONS: S. cerevisiae bub3 mutant strain; at 50.0 µM unless noted
About 79,000 compounds went through this panel and 15% of them were active in at least one assay; those are over-represented in the sample as a whole. The source made the active and inactive calls. No stated cut-off is given here; in the data, active means growth inhibition above about 70%; inactive means the rest.
Labels: y for active, n for inactive

COMPOUND	ANSWER LABEL
C/C(CC1(O)C(=O)Nc2ccccc21)=N\O (stereo not drawn)	n
Cc1ccc(NC(=O)ON(C)C)cc1	n
Nc1n[n+](-c2cccc([N+](=O)[O-])c2)no1	y
BrC1(Br)C2CCCCCCC21 (stereo not drawn)	n
Cc1ccc(S(=O)(=O)CC(=O)NC(C)C)cc1	n
Cc1ccc(/C=N/NC(N)=S)nn1	n
C=C1C2CCC3(CCC4C5(C)CCCC4(C=[N+](CCO)C5)C3C2)C1O (stereo not drawn)	n
OC1c2ccccc2C2c3ccccc3C1C2Cl (stereo not drawn)	n
CS(=O)CCC1C(=O)OC(C(C)(C)C)N1C(=O)c1ccccc1 (stereo not drawn)	n
CCCCC(C)(C)SCCC(=O)O	n
CO/N=C(/NC(=O)OC)c1ccccc1	n
CN(CCO)CCCC1COc2ccccc2O1 (stereo not drawn)	n
Cc1cc(=O)c2c(o1)C(=O)c1occc1C2=O	n

* * *

# reported growth inhibition; entries follow
# METHOD NOTES: NCI Yeast Anticancer Drug Screen. Data for the mlh1 rad18 strain (AID 175)
# EXPERIMENTAL CONDITIONS: S. cerevisiae mlh1 rad18 strain growth inhibition, active compounds read high; at 50.0 µM unless noted
Compounds without any hit were thinned out: in the full panel of roughly 79,000, 15% have a hit.

MOLECULE	growth inhibition, %
O=C1NCCCC1C(=O)Nc1cccc2c1NCCC2 (stereo unspecified)	-32.4
O=C1c2ccccc2C(=O)N1CN1C(=O)c2ccccc2S1(=O)=O	34.9
O=c1n(-c2ccccc2)c(=O)n2n1C1C3C4C5C3C2C5(F)C41 (stereo unspecified)	12.3
Cn1c2cccc3nnc4cccc(c4c32)n1C	-11.8
O=C(/C=C\c1ccc(Cl)c(Cl)c1)c1ccc(Cl)cc1Cl	0.7
CCC(=O)c1ccc(OC)cc1OC	-20.1
